B1: Azoarcus group I ribozyme (parent)
chain: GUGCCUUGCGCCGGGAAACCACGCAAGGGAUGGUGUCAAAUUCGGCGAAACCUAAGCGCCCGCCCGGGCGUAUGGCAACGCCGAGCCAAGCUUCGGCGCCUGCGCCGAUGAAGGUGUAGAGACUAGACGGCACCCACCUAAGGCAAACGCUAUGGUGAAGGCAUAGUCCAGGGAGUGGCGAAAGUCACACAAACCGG

variants of: B1; experiment: reverse-splicing fitness (ratio to wild type); higher = more active; in vitro selection; Mg2+ level not given
The threshold is inclusive: reverse-splicing fitness of exactly 0.01 counts as YES; values below receive NO.

These solved cases illustrate the format of a correct answer.
mutant designation: C82G A111U A120G A145C C150G C169U
classification: NO

mutant designation: A120G A145G C150A C169U
classification: YES

mutant designation: A111U A120G C150G C169U U176G
classification: NO

mutant designation: C82G A120G A145C C169U U176A
classification: YES

mutant designation: C82U A120G A145U C150G C169G U176G
classification: NO

mutant designation: C82U A111U A120C C150A C169A U176A
classification: YES

q: Exam item: decide whether the reported reverse-splicing fitness for A111U A145C C150A C169U is at least 0.01.
a: YES

q: Proceed to A111G A120C A145G C169U U176C
a: YES

q: Would you mind doing C82A A120C A145U C150G C169G U176C as well?
a: NO

q: Another variant to check: C82A A120C A145U C150A C169U U176A
a: YES

q: // repeat for C82G A111G A120C A145G C150U C169G and report
a: NO

q: Next variant: C82A A111U A120U C150A U176A
a: NO

q: One more variant: A111U A120G C169U U176C
a: YES

q: Let us now turn to C82A A111U A120U A145U C169G U176C
a: NO

q: Would you mind doing C82U A111C A145G C150G C169G U176G as well?
a: NO

q: Input A111C A120C C169G U176A
a: YES

q: Please give the result for A111C A120G C150A U176C too.
a: YES

q: Record: C82A A145G U176A
a: YES

q: Ok, now C82A A120U A145U C150G C169A
a: NO

q: Same read-out for C82A A111G A145U C169U ?
a: YES

q: What about A120C A145G C150G C169U ?
a: YES

q: Follow-up entry: C82U A145C C150G C169G
a: NO

q: // repeat for A111C A120C and report
a: YES

q: Can you check C82G A111U A120G A145G C150A C169A U176A next?
a: YES

q: Quick one: C82A A111U A145G C150A C169G
a: NO

q: What would you report for C82U A111G A120C A145U C169U U176C ?
a: YES

q: And then C82G A120G A145G C150G C169A U176A , what is it?
a: YES
